molecular target: constitutive proteasome β5c unit (Homo sapiens); test: Caliper-based proteasome enzymatic activity assay, β5c; details: human recombinant constitutive proteasome 0.3 nM, FAM-labeled peptide substrate 1 μM, rt 3 h; read-out: β5c subunit IC50
pIC50: −log10 of the molar value.
endpoint.label: pIC50

(1) C=CC(=O)N1C[C@@H](F)[C@H](OC(=O)N[C@@H](Cc2ccc(F)cc2)B(O)O)C1
(2) Cc1ccncc1C(=O)N[C@@H](CCCCNC(=O)C(C#N)=CC(C)C)C(=O)N[C@@H](Cc1ccccc1)B(O)O
When 1 and 2 are compared, which has the higher number for pIC50? Field: selected label. Fill in the label of the entry you choose. 2
(2: 7.96, 1: 5.48)

(I) CC(C)C=C(C#N)C(=O)NCCCC[C@H](NC(=O)[C@@H](NC(=O)C(C)C)[C@@H](C)O)C(=O)N[C@@H](CC(C)C)B(O)O
(II) CC(C)(C=C(C#N)C(=O)N1CCO[C@H](CC(=O)N[C@@H](Cc2ccccc2)B(O)O)C1)N1CCC(F)(F)C1
API: POST /compare with I and II ; response names the item with higher pIC50. Select an item and report its label. I
(I: 8.03, II: 6.86)

(1) C[C@H]1CN(C(C)(C)C=C(C#N)C(=O)N2CCCC[C@@H](OC(=O)N[C@@H](Cc3ccccc3)B(O)O)C2)C[C@H](C)O1
(2) CC(C)C=C(C#N)C(=O)NCCCC[C@H](NC(=O)[C@H](C)NC(=O)C(C)C)C(=O)N[C@@H](Cc1ccccc1)B(O)O
From the recorded data, which exceeds the other in pIC50: 1 or 2 ? # reply format: chosen label 2

----------
molecular target: immunoproteasome LMP7/B5i subunit (Homo sapiens, UniProt P28062); assay: Caliper-based proteasome enzymatic activity assay, LMP7; assay type: biochemical; conditions: human recombinant immunoproteasome 0.3 nM, FAM-labeled peptide substrate 1 μM, rt 3 h; read-out: LMP7 subunit IC50
pIC50: −log10 of the molar value.
endpoint.label: pIC50

(I) C[C@H]1CN(C(C)(C)C=C(C#N)C(=O)N2CCCC[C@@H](OC(=O)N[C@@H](Cc3ccccc3)B(O)O)C2)CCO1 [Example 130]
(II) Cc1ccc(C[C@H](NC(=O)OC[C@H]2CCCN(C(=O)C(C#N)=CC(C)(C)N3CCC(F)(F)C3)C2)B(O)O)cc1 [Example 52]
(III) C[C@H]1CN(C(C)(C)C=C(C#N)C(=O)N2CCCC[C@@H](OC(=O)N[C@@H](Cc3ccccc3)B(O)O)C2)C[C@H](C)O1 [Example 128]
I'd appreciate it if you sorted the entries above by their pIC50, lowest to highest. Return value: ordered labels per request. III, I, II

----------
target: constitutive proteasome β5c unit (Homo sapiens); assay: Caliper-based proteasome enzymatic activity assay, β5c; type: biochemical; conditions: human recombinant constitutive proteasome 0.3 nM, FAM-labeled peptide substrate 1 μM, rt 3 h; read-out: β5c subunit IC50
pIC50: −log10 of the molar value.
endpoint.label: pIC50

Some compounds with recorded pIC50:
>>> measurement("CC(C)C=C(C#N)C(=O)NCCCC[C@H](NC(=O)c1cccc(O)n1)C(=O)N[C@@H](CC(C)C)B(O)O [Example 7]")
9.00
>>> measurement("C[C@@H]1CN(C(C)(C)C=C(C#N)C(=O)N2C3CCC2(COC(=O)N[C@@H](Cc2ccccc2)B(O)O)CC3)C[C@H](C)O1 [Example 114]")
5.78
>>> measurement("CC(C)(C=C(C#N)C(=O)N1C[C@H](F)[C@H](OC(=O)N[C@@H](Cc2ccccc2)B(O)O)C1)N1CCC(F)(F)C1 [Example 111]")
6.85

(a) CC(C)C=C(C#N)C(=O)N(C)c1cccc(C[C@H](NC(=O)c2cc(Cl)ccc2Cl)C(=O)N[C@@H](Cc2ccccc2)B(O)O)c1 [Example 20]
(b) CC(C)C=C(C#N)C(=O)N(C)c1cccc(C[C@H](NC(=O)c2cnccn2)C(=O)N[C@@H](Cc2ccccc2)B(O)O)c1 [Example 21]
(c) CC(C)(C=C(C#N)C(=O)N1CCC[C@@H]1CNC(=O)N[C@@H](Cc1coc2ccccc12)B(O)O)N1CCC(F)(F)C1 [Example 50]
(d) CC(C)C=C(C#N)C(=O)N1CCCC[C@@H]1COC[C@H](NCC(F)(F)F)C(=O)N[C@@H](Cc1ccccc1)B(O)O [Example 25]
Task field, ranking: reported pIC50, descending order. Answer format: the labels, ordered as requested. a, b, d, c
